testSystem: GFRα1-RET (Homo sapiens, UniProt P56159)
Sequence (P56159 25-429 limits assumed): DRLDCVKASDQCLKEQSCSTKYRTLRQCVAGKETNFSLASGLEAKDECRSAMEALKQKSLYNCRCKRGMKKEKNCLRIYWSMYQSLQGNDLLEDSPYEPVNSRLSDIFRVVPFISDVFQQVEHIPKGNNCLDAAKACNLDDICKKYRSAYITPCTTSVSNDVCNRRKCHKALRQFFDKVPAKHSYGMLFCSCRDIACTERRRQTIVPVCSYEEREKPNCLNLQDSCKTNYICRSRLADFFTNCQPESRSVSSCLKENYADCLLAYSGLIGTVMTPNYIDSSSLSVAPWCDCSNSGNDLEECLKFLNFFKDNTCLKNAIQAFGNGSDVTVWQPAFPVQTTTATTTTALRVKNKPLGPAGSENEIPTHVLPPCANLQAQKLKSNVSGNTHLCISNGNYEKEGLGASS
assayNotes: Elk1 reporter-gene (luciferase) assay in cells expressing GFRα1-RET
settings: MG87 murine fibroblasts stably transfected with PathDetect Elk-1, GFRα1 and RET, 6 concentrations, agonist/activator activity
pEC50: −log10 of the molar value.
Below, each entry is listed with its recorded pEC50.

Known results for compounds:
Cc1cc(S(=O)(=O)NC(C)(C)C)cc(N2[C@@H]3CC[C@H]2CN(C(=O)c2ccc(F)cc2Cl)C3)c1O; > 6.00
CC(NS(=O)(=O)c1cc(Cl)c(O)c(N2C3CCC2CN(C(=O)c2ccc(F)cc2Cl)C3)c1)C(F)(F)F (racemic); 5.00 to 6.00
CCCN(C)S(=O)(=O)c1ccc(OCC)c(N2[C@@H]3CC[C@H]2CN(C(=O)c2ccc(F)cc2Cl)C3)c1; 5.00 to 6.00

Memo: `COc1ccc(S(=O)(=O)N2CCN(c3ccccc3)CC2)cc1N1[C@@H]2CC[C@H]1CN(C(=O)c1cc(F)c(F)cc1Cl)C2` , reported pEC50: > 6.00

Memo: `CN(C(C)(C)C)S(=O)(=O)c1cc(Cl)c(Cl)c(N2[C@@H]3CC[C@H]2CN(C(=O)c2ccc(F)cc2Cl)C3)c1` , reported pEC50: > 6.00

Memo: `COc1ccc(S(=O)(=O)N2CCN(CCc3ccc(F)cc3)CC2)cc1N1[C@@H]2CC[C@H]1CN(C(=O)c1ccc(F)cc1Cl)C2` , reported pEC50: > 6.00
